Where do these numbers come from? They come from patent US20240066100A1.

Molecular target: T1, human IL-18Rα ectodomain (amino acids 19-329), biotinylated (human, UniProt Q13478 19-329, biotin on the AviTag (BirA ligase))
T1 construct: range 19-329; Secreted from insect cells with gp67 signal peptide (cleaved); also called hIL-18Rα; IL-18R1
T1 sequence: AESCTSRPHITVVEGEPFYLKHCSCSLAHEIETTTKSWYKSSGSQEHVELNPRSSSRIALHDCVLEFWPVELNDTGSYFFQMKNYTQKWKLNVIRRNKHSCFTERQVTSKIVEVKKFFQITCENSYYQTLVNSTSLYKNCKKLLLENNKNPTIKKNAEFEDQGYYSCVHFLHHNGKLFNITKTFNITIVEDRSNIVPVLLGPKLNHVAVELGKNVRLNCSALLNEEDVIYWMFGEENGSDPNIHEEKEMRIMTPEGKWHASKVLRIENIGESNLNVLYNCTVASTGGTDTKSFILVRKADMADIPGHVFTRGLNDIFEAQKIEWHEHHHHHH
Test: on-yeast binding isotherm, flow cytometry; exponent missing in the cell, derived from 20 µM/c4
measurement-name: Kd
Remember to put the unit after the number in your answer.

# annotated cases, reported Kd shown
human decoy-resistant IL-18 variant SEQ ID NO: 52 (ligand, Engineered variant of mature human IL-18; display linker not in chains; also called hH3) RFGKLESRLSVIRNLNDQVLFIDQGNRPLFEDMTDSDCRDNAPRTIFIISTYKDSQPRGKAVTISVKCEKISTLSCENKIISFKEMNPPDNIKDTKSDIIFFQRDVPGHKHKMQFESSSYEGYFLACEKERDLFKLILKKEDELGDRSIMFTVQNED | 83.8 nM
human decoy-resistant IL-18 variant SEQ ID NO: 39 (ligand, Engineered variant of mature human IL-18; display linker not in chains; also called hA8) YFGKLESRLSVIRNLNDQVLFIDQGNRPLFEDMTDSDCRDNAPRTIFIISKYKDKQPRAQAVTISVKCEKISTLSCENKIISFKEMNPPDNIKDTKSDIIFFQRDVPGHKHKMQFESSSYEGYFLACEKERDLFKLILKKEDELGDRSIMFTIQNED | 57.7 nM

According to the records, this binder human decoy-resistant IL-18 variant SEQ ID NO: 57 (ligand, Engineered variant of mature human IL-18; display linker not in chains; also called hB9) RFGKHESKLSVIRNLNDQVLFIDQGNRPLFEDMTDSDCRDNAPRTIFIISTYRDSQPRGKAVTISVKCEKISTLSCENKIISFKEMNPPDNIKDTKSDIIFFERNVPGHKYKMQFESSSYEGYFLACEKERDLFKLILKKEDELGDRSIMFTVQNED displays Kd of 127 nM

According to the records, this binder human decoy-resistant IL-18 variant SEQ ID NO: 37 (ligand, Engineered variant of mature human IL-18; tag and display linker not in chains; also called hCS4) RFGKLESKLSVIRNLNDQVLFIDQGNRPLFEDMTDSDCRDNAPRTIFIISTYRDSQPRGKAVTISVKCEKISTLSCENKIISFKEMNPPDNIKDTKSDIIFFQRNVPGHKYKMQFESSSYEGYFLACEKERDLFKLILKKEDELGDRSIMFTVQNED displays Kd of 160 nM
